Just for reference, patent US20240117030A1 is where these values come from.

Molecular target: human IL-13 (human, UniProt P35225 35-146)
Sequence (P35225 35-146 limits assumed, form in doubt): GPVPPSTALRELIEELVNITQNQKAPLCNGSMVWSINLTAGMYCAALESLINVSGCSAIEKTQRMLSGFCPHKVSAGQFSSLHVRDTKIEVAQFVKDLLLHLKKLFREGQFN
Assay: cell-based or functional assay
# Lookup of reported CD23 IC50 [pM] keyed by entry

[
  {
    "BINDER": "IL13-0001 (antibody, human IgG1, kappa, V domains shown, also called IL13433-0001; 1RVHC9-VLA4) VH: EVQLVESGGGLVQPGGSLRLSCAASGFTFSSYAMSWVRQAPGKGLEWVASISSGDTTYYPDSVKGRFTISRDNAKNSLYLQMNSLRAEDTAVYYCARNEGYYFGLTLWGQGTLVTVSS VL: DIQMTQSPSSLSASVGDRVTITCKASESVDHFGWSLVHWYQQKPGKAPKLLIYRASNLESGVPSRFSGSGSGTDFTLTISSLQPEDFATYYCQQSNEDPWTFGGGTKVEIKR",
    "RESULT UNITS": "pM",
    "CD23 IC50 [pM]": 10.5
  },
  {
    "BINDER": "IL13-1338 (antibody, IgG1, V domains shown) VH: EVQLVESGGGLVQPGGSLRLSCAASGFTFSSYAMSWVRQAPGKGLEWVASISSGDTTYYPDSVKGRFTISRDNAKNSLYLQMNSLRAEDTAVYYCARNEGYYFGLTLWGQGTLVTVSS VL: DIQMTQSPSSLSASVGDRVTITCKASESVDHSGSSLMHWYQQKPGKAPKLLIYRASNLESGVPSRFSGSGSGTDFTLTISSLQPEDFATYYCQQSNEDPWTFGGGTKVEIK",
    "RESULT UNITS": "pM",
    "CD23 IC50 [pM]": 11.5
  },
  {
    "BINDER": "IL13-1307 (antibody, IgG1, V domains shown) VH: EVQLVESGGGLVQPGGSLRLSCAASGFTFSSYAMSWVRQAPGKGLEWVASISSGDTTYYPDSVKGRFTISRDNAKNSLYLQMNSLRAEDTAVYYCARLDGYYFGFPYWGQGTLVTVSS VL: DIQMTQSPSSLSASVGDRVTITCKASESVDHSGSSLMHWYQQKPGKAPKLLIYRASNLESGVPSRFSGSGSGTDFTLTISSLQPEDFATYYCQQSNEDPWTFGGGTKVEIK",
    "RESULT UNITS": "pM",
    "CD23 IC50 [pM]": 306
  },
  {
    "BINDER": "IL13-1308 (antibody, IgG1, V domains shown) VH: EVQLVESGGGLVQPGGSLRLSCAASGFTFSSYAMSWVRQAPGKGLEWVASISSGDTTYYPDSVKGRFTISRDNAKNSLYLQMNSLRAEDTAVYYCARLDGYYFGFPYWGQGTLVTVSS VL: DIQMTQSPSSLSASVGDRVTITCKASESVDHFGWSLVHWYQQKPGKAPKLLIYRASNLESGVPSRFSGSGSGTDFTLTISSLQPEDFATYYCQQSNEDPWTFGGGTKVEIKR",
    "RESULT UNITS": "pM",
    "CD23 IC50 [pM]": 14.4
  }
]
